species: Rattus norvegicus; experiment: Open TG-GATES - Regimen: Daily Repeat; type: toxicity, organism-based, Sprague-Dawley; set-up: regimen Daily Repeat, gender Male, age 6 weeks; conditions: in vivo, po, 100 mg/kg, […], route gavage, dose level Low, time 7 day
Reported TERMINAL_BW values are given for each entry in this list.
# value in g; strip the unit string

Here are 3 compounds together with their reported answers.
Task item: Answer with the recorded TERMINAL_BW for the compound listed here: CC(=O)[C@@]1(O)CC[C@H]2[C@@H]3C=C(Cl)C4=CC(=O)CC[C@]4(C)[C@H]3CC[C@@]21C
Reply: 252.1

Task item: Answer with the recorded TERMINAL_BW for the compound listed here: CCCCNC(=O)NS(=O)(=O)c1ccc(C)cc1 [TOLBUTAMIDE]
Reply: 273.5

Task item: Answer with the recorded TERMINAL_BW for the compound listed here: CC(S)C(=O)NCC(=O)O (centres undefined)
Reply: 255.1

Query compound follows.
Task item: Answer with the recorded TERMINAL_BW for the compound listed here: O=C(O)c1ccccc1Nc1ccccc1
Reply: 277.8

---

organism: Rattus norvegicus; assay: Open TG-GATES - Regimen: Single; type: toxicity, organism-based, Sprague-Dawley; set-up: regimen Single, gender Male, age 6 weeks; details: in vivo, po, 0 mg/kg, 3 h, tissue Blood, route gavage, dose level Control
reported.property: RBC (x10_4/ul)
# value in x10_4/ul; strip the unit string

Here are 4 compounds together with their reported answers.
Task item: Answer with the recorded RBC for the compound listed here: CCCCNC(=O)NS(=O)(=O)c1ccc(C)cc1 [TOLBUTAMIDE]
Reply: 649.4

Task item: Answer with the recorded RBC for the compound listed here: CC(=O)[C@@]1(O)CC[C@H]2[C@@H]3C=C(Cl)C4=CC(=O)CC[C@]4(C)[C@H]3CC[C@@]21C [CHLORMADINONE]
Reply: 650.2

Task item: Answer with the recorded RBC for the compound listed here: CC(S)C(=O)NCC(=O)O (stereo not given) [TIOPRONIN]
Reply: 649.6

Task item: Answer with the recorded RBC for the compound listed here: CN(C/C=C/C#CC(C)(C)C)Cc1cccc2ccccc12 [TERBINAFINE]
Reply: 606.2

Query compound follows.
Task item: Answer with the recorded RBC for the compound listed here: CCN(CC)C(=S)SSC(=S)N(CC)CC
Reply: 639.2

---

Reported Ht values are given for each entry in this list.
species on record: Rattus norvegicus; assay: Open TG-GATES - Regimen: Single; format: toxicity, organism-based, Sprague-Dawley; parameters: regimen Single, gender Male, age 6 weeks; settings: in vivo, po, 0 mg/kg, 3 h, tissue Blood, route gavage, dose level Control
# value in %; strip the unit string

Here are 5 molecules together with their reported answers.
Task item: Answer with the recorded Ht for the molecule listed here: O=C(O)c1ccccc1Nc1ccccc1 [FENAMIC ACID]
Reply: 39.6

Task item: Answer with the recorded Ht for the molecule listed here: Nc1ccc(Cc2ccc(N)cc2)cc1
Reply: 37.3

Task item: Answer with the recorded Ht for the molecule listed here: CN(C/C=C/C#CC(C)(C)C)Cc1cccc2ccccc12 [TERBINAFINE]
Reply: 39.2

Task item: Answer with the recorded Ht for the molecule listed here: CN(CCOc1ccc(CC2SC(=O)NC2=O)cc1)c1ccccn1.O=C(O)/C=C\C(=O)O (stereo unspecified) [ROSIGLITAZONE MALEATE]
Reply: 39.7

Task item: Answer with the recorded Ht for the molecule listed here: CC(S)C(=O)NCC(=O)O (stereo unspecified) [TIOPRONIN]
Reply: 40.4

More entries:
Task item: Answer with the recorded Ht for the molecule listed here: CCCCNC(=O)NS(=O)(=O)c1ccc(C)cc1 [TOLBUTAMIDE]
Reply: 42.1
